Test Summary: Antiproliferative activity against human WM793 cells after 3 days by SRB assay
Assay type: functional
Run Parameters: Homo sapiens, WM793, 72 h; read-out: ED50 (the source's name)
Readout Kind: EC50 (µM)
Write the number in µM without appending the unit.

INPUT: Please indicate EC50 recorded for `C=C(C)[C@@H]1CC[C@]2(COC(=O)CC[n+]3ccc(N(C)C)cc3)CC[C@]3(C)[C@H](CC[C@@H]4[C@@]5(C)CC[C@H](OC(=O)CC[n+]6ccc(N(C)C)cc6)C(C)(C)[C@@H]5CC[C@]43C)[C@@H]12`
OUTPUT: 0.8

INPUT: Please indicate EC50 recorded for `C=C(C)[C@@H]1CC[C@]2(COC(=O)C[n+]3ccc(N(C)C)cc3)CC[C@]3(C)[C@H](CC[C@@H]4[C@@]5(C)CC[C@H](OC(=O)C[n+]6ccc(N(C)C)cc6)C(C)(C)[C@@H]5CC[C@]43C)[C@@H]12`
OUTPUT: 0.4

Origin of the recorded values: ChEMBL document CHEMBL1212901
